- Assay Notes: LogD determination, shake-flask method
- Assay type: physicochemical
- Assay Setup: octanol/PBS, pH 7.4
Listing: logD of selected compounds
In your answer, state the number alone without any accompanying words.

Compound: CC(C)OC(=O)[C@H](Cc1c[nH]c2ccccc12)Nc1ncnc2[nH]ccc12
logD: 3.33
--
Compound: COC(=O)[C@H](Cc1c[nH]c2ccccc12)Nc1ncnc2[nH]ccc12
logD: 1.5

From here, focus on the item given below.
Find the measured logD of O=C(O)C(Cc1c[nH]c2ccccc12)Nc1ncnc2[nH]ccc12 (stereo not drawn) and report it. -0.61

###

Listed here: compounds with reported pIC50 for UniProt:P0DTD1.
Expect pIC50 as a plain number equal to -log10 of the molar concentration.

Below: 3 compounds and their reported pIC50.
Compound: CC(C)OC(=O)[C@H](Cc1c[nH]c2ccccc12)Nc1ncnc2[nH]ccc12
Target: UniProt:P0DTD1
pIC50: 5.44
//
Compound: O=C(NCc1ccccn1)[C@H](Cc1c[nH]c2ccccc12)Nc1ncnc2[nH]ccc12
Target: UniProt:P0DTD1
pIC50: 5.12
//
Compound: NC(=O)[C@H](Cc1c[nH]c2ccccc12)Nc1ncnc2[nH]ccc12
Target: UniProt:P0DTD1
pIC50: 5.39

Quote UniProt:P0DTD1 pIC50 for entry O=C(NCc1ccncc1)[C@H](Cc1c[nH]c2ccccc12)Nc1ncnc2[nH]ccc12 . 5.08

Quote UniProt:P0DTD1 pIC50 for entry O=C(O)C(Cc1c[nH]c2ccccc12)Nc1ncnc2[nH]ccc12 (centres unmarked) . 5.21

Quote UniProt:P0DTD1 pIC50 for entry O=C(NCc1ccccn1)[C@@H](Cc1c[nH]c2ccccc12)Nc1ncnc2[nH]ccc12 . 5.31

Quote UniProt:P0DTD1 pIC50 for entry O=C(NCc1ccnc(Cl)c1)[C@H](Cc1c[nH]c2ccccc12)Nc1ncnc2[nH]ccc12 . 5.12

Quote UniProt:P0DTD1 pIC50 for entry COC(=O)[C@H](Cc1c[nH]c2ccccc12)Nc1ncnc2[nH]ccc12 . 4.85

###

Listing: DSF assay ΔTm of selected molecules
- Target: UniProt:P0DTD1
- Assay Notes: Differential scanning fluorimetry (DSF) thermal shift assay
- Type: binding
- Assay Setup: thermal stability of SARS-CoV-2 Mac1, increasing compound concentrations
Lab book: enter the figure in °C, no units written.

Below: 3 molecules and their reported DSF assay ΔTm.
Molecule: NC(=O)[C@H](Cc1c[nH]c2ccccc12)Nc1ncnc2[nH]ccc12 [Compound 6c]
Unit Label: °C
DSF assay ΔTm: 3.06

Molecule: O=C(NCc1ccnc(Cl)c1)[C@H](Cc1c[nH]c2ccccc12)Nc1ncnc2[nH]ccc12 [Compound 6b]
Unit Label: °C
DSF assay ΔTm: 1.57

Molecule: O=C(NCc1ccccn1)[C@@H](Cc1c[nH]c2ccccc12)Nc1ncnc2[nH]ccc12 [Compound 6e]
Unit Label: °C
DSF assay ΔTm: 1.17

Find the measured DSF assay ΔTm of O=C(O)C(Cc1c[nH]c2ccccc12)Nc1ncnc2[nH]ccc12 (stereo not drawn) [Compound 4b] and report it. 4.46

Find the measured DSF assay ΔTm of COC(=O)[C@H](Cc1c[nH]c2ccccc12)Nc1ncnc2[nH]ccc12 [Compound 5a] and report it. 0.97

Find the measured DSF assay ΔTm of O=C(O)C(Cc1c[nH]c2ccccc12)Nc1ncnc2[nH]ccc12 (stereo not drawn) [Compound 4a] and report it. 4.32

Find the measured DSF assay ΔTm of O=C(NCc1ccccn1)[C@H](Cc1c[nH]c2ccccc12)Nc1ncnc2[nH]ccc12 [Compound 6d] and report it. 1.39

Find the measured DSF assay ΔTm of O=C(NCc1ccncc1)[C@H](Cc1c[nH]c2ccccc12)Nc1ncnc2[nH]ccc12 [Compound 6a] and report it. 1.29

Find the measured DSF assay ΔTm of CC(C)OC(=O)[C@H](Cc1c[nH]c2ccccc12)Nc1ncnc2[nH]ccc12 [Compound 5c] and report it. 0.76
